# Test system: Coprococcus comes
# Test method notes: growth AUC relative to DMSO control (median of replicates) (fraction); higher = more growth (less inhibition), active = hit call of the paper
# Run parameters: 20 µM; 24 h
Where growth AUC equals or exceeds 1, the correct label is true; where it does not, the label is false.

[
  {
    "Chemical smiles": "NS(=O)(=O)[O-].[NH4+]",
    "Group": "true"
  },
  {
    "Chemical smiles": "Oc1c(Cl)cc(Cl)c(Cl)c1Cc1c(O)c(Cl)cc(Cl)c1Cl",
    "Group": "false"
  }
]

###

# Tested on: Bacteroides caccae
# Test method notes: growth AUC relative to DMSO control (median of replicates) (fraction); higher = more growth (less inhibition), active = hit call of the paper;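 active = AUC reduced over 20% with Padj below 0.05 in at least 2 of 3 replicates; inactive = otherwise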
# Run parameters: 20 µM; 24 h
Outcome codes: yes (active), no (inactive)

[
  {
    "Compound": "COc1c(Cl)ccc(Cl)c1C(=O)O",
    "Group": "no"
  },
  {
    "Compound": "C=O",
    "Group": "no"
  },
  {
    "Compound": "CCS(=O)(=O)c1nnc(N(C)C(=O)NC)s1",
    "Group": "no"
  },
  {
    "Compound": "COCCOc1ccccc1S(=O)(=O)NC(=O)Nc1nc(OC)nc(OC)n1",
    "Group": "no"
  },
  {
    "Compound": "CCOC(=O)c1cnn(C)c1S(=O)(=O)NC(=O)Nc1nc(OC)cc(OC)n1",
    "Group": "no"
  },
  {
    "Compound": "CC1=C(C(=O)Nc2ccccc2)CCCO1",
    "Group": "no"
  },
  {
    "Compound": "CCOC(=O)C1=NN(c2ccc(Cl)cc2Cl)C(C)(C(=O)OCC)C1 (centres undefined)",
    "Group": "no"
  },
  {
    "Compound": "CCNc1nc(NC(C)(C)C)nc(OC)n1",
    "Group": "no"
  },
  {
    "Compound": "CCOC(=O)C1CC(=O)C(=C(O)C2CC2)C(=O)C1 (centres undefined)",
    "Group": "no"
  },
  {
    "Compound": "Cc1nn(C)c(Oc2ccccc2)c1/C=N/OCc1ccc(C(=O)OC(C)(C)C)cc1",
    "Group": "no"
  },
  {
    "Compound": "CC(C)c1cc(Oc2ccccc2)cc(C(C)C)c1NC(=S)NC(C)(C)C",
    "Group": "no"
  },
  {
    "Compound": "c1ccc(Nc2ccccc2)cc1",
    "Group": "no"
  },
  {
    "Compound": "O=C1NC(=O)c2ccccc21",
    "Group": "no"
  },
  {
    "Compound": "CNc1nc(NC(C)C)nc(SC)n1",
    "Group": "no"
  },
  {
    "Compound": "CC(C)(c1cc(Br)c(O)c(Br)c1)c1cc(Br)c(O)c(Br)c1",
    "Group": "yes"
  },
  {
    "Compound": "CCc1cccc(CC)c1N(COC)C(=O)CS(=O)(=O)[O-].[Na+]",
    "Group": "no"
  },
  {
    "Compound": "COc1cc(OC)nc(NC(=O)NS(=O)(=O)N(C)S(C)(=O)=O)n1",
    "Group": "no"
  },
  {
    "Compound": "CON(C(=O)c1cc(C)oc1C)C1CCCCC1",
    "Group": "no"
  },
  {
    "Compound": "CCCCOC(=O)COc1ccc(Cl)cc1Cl",
    "Group": "no"
  },
  {
    "Compound": "C=C1C[C@]23C[C@@]1(O)CC[C@H]2[C@@]12C=C[C@H](O)[C@@](C)(C(=O)O1)[C@H]2[C@@H]3C(=O)O",
    "Group": "no"
  },
  {
    "Compound": "C/C=C/C(=O)Oc1c(C(C)CCCCCC)cc([N+](=O)[O-])cc1[N+](=O)[O-] (mixture of isomers)",
    "Group": "yes"
  },
  {
    "Compound": "COC(=O)CC(NC(=O)[C@@H](NC(=O)OC(C)C)C(C)C)c1ccc(Cl)cc1 (some centres undefined)",
    "Group": "no"
  },
  {
    "Compound": "COc1nc(OC)nc(C(=O)c2cccc(F)c2N(C)S(=O)(=O)C(F)F)n1",
    "Group": "no"
  },
  {
    "Compound": "CCCN(CCC)C(=O)SCC",
    "Group": "no"
  },
  {
    "Compound": "CCC/C(=N\\OCC(C)Oc1ccc(Cl)cc1)C1=C(O)CC(C2CCCSC2)CC1=O (centres undefined)",
    "Group": "no"
  },
  {
    "Compound": "CN(C)C(=O)c1cccnc1S(N)(=O)=O",
    "Group": "no"
  },
  {
    "Compound": "CC(C)(C)C(=O)C(Oc1ccc(Cl)cc1)n1ccnc1 (centres undefined)",
    "Group": "no"
  },
  {
    "Compound": "NC(=S)Nc1cccc2ccccc12",
    "Group": "no"
  },
  {
    "Compound": "CC(C)(NC(=O)NCc1ccccc1Cl)c1ccccc1",
    "Group": "no"
  },
  {
    "Compound": "O=C(O)Cc1c[nH]c2ccccc12",
    "Group": "no"
  },
  {
    "Compound": "O=C(O)COc1ccc(Cl)cc1CO",
    "Group": "no"
  },
  {
    "Compound": "CCc1cccc(C)c1NC(C)C(=O)O (racemic)",
    "Group": "no"
  },
  {
    "Compound": "CC(C)OC(=O)N[C@H](C(=O)N[C@H](C)c1nc2ccc(F)cc2s1)C(C)C",
    "Group": "no"
  },
  {
    "Compound": "COc1nc(NC(=O)NS(=O)(=O)c2ccccc2C(F)(F)F)nc(C(F)(F)F)n1",
    "Group": "no"
  },
  {
    "Compound": "COc1cc(OC)nc(NC(=O)NS(=O)(=O)Nc2ccccc2C(=O)C2CC2)n1",
    "Group": "no"
  },
  {
    "Compound": "Br[C@@H]1CC[C@@H](Br)[C@@H](Br)CC[C@@H](Br)[C@@H](Br)CC[C@H]1Br",
    "Group": "no"
  },
  {
    "Compound": "Br[C@@H]1CC[C@@H](Br)[C@@H](Br)CC[C@H](Br)[C@H](Br)CC[C@H]1Br",
    "Group": "no"
  },
  {
    "Compound": "COC(=O)c1cccc(C)c1S(=O)(=O)NC(=O)Nc1nc(OCC(F)(F)F)nc(N(C)C)n1",
    "Group": "no"
  },
  {
    "Compound": "CC(C)c1nn(C(=O)NC(C)(C)C)c(=O)n1N",
    "Group": "no"
  }
]

Hello, the source for this data is the supplement of paper PMC12669032, in case you need it.
